Reference source for all entries: patent US11034759B2

# ASSAY_TARGET: T1, MCSF (Homo sapiens, UniProt P09603)
# T1 sequence (P09603 33-255 limits assumed): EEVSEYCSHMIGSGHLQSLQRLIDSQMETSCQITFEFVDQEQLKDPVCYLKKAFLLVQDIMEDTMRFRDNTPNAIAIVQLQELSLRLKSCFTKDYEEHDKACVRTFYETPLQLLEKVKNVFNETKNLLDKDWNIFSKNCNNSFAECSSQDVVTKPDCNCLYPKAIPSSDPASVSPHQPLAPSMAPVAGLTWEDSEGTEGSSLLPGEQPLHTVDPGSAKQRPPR
# ASSAY_TEXT: Biacore analysis of Human Engineered RX1 antibodies, M-CSF immobilized (Example 13)
# Type: binding
# MEASUREMENT_SETUP: Table 11, 25° C.
EXPERIMENTAL_ENDPOINT: ka (M⁻¹ s⁻¹)
# output: bare number, implied unit M⁻¹ s⁻¹

# input Return value of ka for input heRX1-4.G2: Human Engineered RX1: light chain Low + Mod Risk (Kabat), heavy chain Low + Mod Risk (Kabat), Gamma 2 (antibody, left off: a dimerising Fc or GST) heavy: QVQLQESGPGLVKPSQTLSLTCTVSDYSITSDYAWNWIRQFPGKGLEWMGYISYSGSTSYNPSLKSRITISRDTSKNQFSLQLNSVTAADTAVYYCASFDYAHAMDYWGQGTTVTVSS light: EIVLTQSPGTLSVSPGERVTFSCRASQSIGTSIHWYQQKTGQAPRLLIKYASERATGIPDRFSGSGSGTDFTLTISRVESEDFADYYCQQINSWPTTFGQGTKLEIKRT , no commentary.
# output 238000
